Target: T1, full-length human APLNR (human, UniProt P35414 1-380)
T1 sequence: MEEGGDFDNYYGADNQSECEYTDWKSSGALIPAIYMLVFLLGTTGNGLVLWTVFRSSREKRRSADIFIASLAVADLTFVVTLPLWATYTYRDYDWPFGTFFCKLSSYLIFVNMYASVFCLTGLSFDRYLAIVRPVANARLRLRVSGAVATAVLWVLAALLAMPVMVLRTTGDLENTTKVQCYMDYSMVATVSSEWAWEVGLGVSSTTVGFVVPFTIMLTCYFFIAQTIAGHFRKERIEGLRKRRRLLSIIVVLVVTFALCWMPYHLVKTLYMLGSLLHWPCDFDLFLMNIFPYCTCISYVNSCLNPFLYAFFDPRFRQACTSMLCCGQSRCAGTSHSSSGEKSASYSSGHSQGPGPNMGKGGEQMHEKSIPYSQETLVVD
Assay: cell-based or functional assay
% Activation at 500 nM mAb (at 7.5 uM Forskolin) listing for selected binders.
Entry rule: numbers only, all in %.

Here is how some binders turned out for % Activation at 500 nM mAb (at 7.5 uM Forskolin).
- Binder: "H2aM9228N (antibody, V domains shown, Human variable domains, mouse IgG2a Fc) VH: EVQLVESGGGLVQPGGSLRLSCAASGFTFSNYWMSWVRLAPGKGLEWVANIKQDGSERYYVGSVKGRFTISRGDAKNSLYLQMNSLRAEDTAVYYCARDRFGYSAFDKGVRYYYGMDVWGQGTTVTVSS VL: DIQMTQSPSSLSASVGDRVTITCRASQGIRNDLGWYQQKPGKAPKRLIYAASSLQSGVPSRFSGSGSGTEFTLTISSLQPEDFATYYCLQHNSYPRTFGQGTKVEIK"
  Reported measurement: 49
- Binder: "H2aM9227N (antibody, V domains shown, Human variable domains, mouse IgG2a Fc) VH: EVQLVESGGGLVQPGGSLRLSCAASGFTFSSFWMSWVRQVPGKGLEWVANIKQDGSEKYYVDSVKGRFTISRDNAKNSLYLQMNSLRAEDTAVYYCARDRFGYSFYDKGVRYYYGMDVWGQGTTVTVSS VL: DIQMTQSPSSLSVSVGDRVTITCRASQGIRNDLGWYQQKPGKAPKRLIYATSSLQSGVPSRFSGSGSGTEFTLTISGLQPEDFATYYCLQHNSYPRTFGQGTKVEIK"
  Reported measurement: 45
- Binder: "H2aM9222N (antibody, V domains shown, Human variable domains, mouse IgG2a Fc) VH: EVQLVESGGGLVQPGGSLRLSCAASGFTFSNYWMSWVRQAPGKGLEWVANIKQDGSERYYVGSVKGRFTISRGDAENSLYLQMNSLRAEDTAVYYCARDRFGYSAYDKGVRYYYGMDVWGQGTTVTVSS VL: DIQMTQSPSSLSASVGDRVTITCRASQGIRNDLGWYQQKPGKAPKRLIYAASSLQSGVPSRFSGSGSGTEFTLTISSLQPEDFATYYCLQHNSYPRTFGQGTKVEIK"
  Reported measurement: 21

Now look at this entry.
Notebook: H2aM9230N (antibody, V domains shown, Human variable domains, mouse IgG2a Fc) VH: EVQLVESGGGLVQPGGSLRLSCAASGFTFSSFWMSWVRQVPGKGLQWVANIKQDGSEKYYVDSVKGRFTISRDNAKNSLYLQMNSLRAEDTAVYYCARDRFGYSVYDKGVRYYYGMDVWGQGTTVTVSS VL: DIQMTQSPSSLSVSVGDRVTITCRASQGIRNDLGWYQQKPGKAPKRLIYAASSLQSGVPSRFSGSGSGTEFTLTISGLQSEDFATYYCLQHKSYPRTFGQGTKVEIK , % Activation at 500 nM mAb (at 7.5 uM Forskolin) read as 52
